- System: CCRF-CEM leukemia
- Test method notes: NCI-60 one-dose screen, 48 h (100 = growth as untreated, 0 = no growth, -100 = all killed)
- Condition summary: 10 µM
About 83,000 compounds went through this panel and 20% of them were active in at least one assay; those are over-represented in the sample as a whole.
Bucketed by reported growth, buckets being low (below 10%), intermediate (10% to below 70%), high (70% or more)

molecule=COC(=O)c1ccc2[nH]c(O)c(C(=Nc3ccc(N(C)C(=O)CN4CCN(C)CC4)cc3)c3ccc(OC)cc3)c2c1 qualitative_label=low
molecule=Cc1[nH]n(C(=S)Nc2nc3cc(Cl)c(F)cc3s2)c(=O)c1N=Nc1ccc(F)c(Cl)c1 qualitative_label=intermediate

Assign a bin to C/C=C(/C)C(=O)OC1C=C(CO)C(=O)C(OC(=O)C(C)(O)C(C)Cl)C1C(C)C (stereo unspecified)
low

Assign a bin to Cc1ncc(C(=O)Nc2ccc(CN3CCN(C)CC3)c(C(F)(F)F)c2)cc1C#Cc1c(N)ncc2ccc(F)cc12
low

Assign a bin to CCOC(=O)C1=C(c2ccccc2)NC(=O)NC1CN1C(=O)c2ccccc2C1=O (stereo unspecified)
intermediate

Assign a bin to c1cc[c]([Bi]([c]2ccccc2)[c]2ccccc2)cc1
high

Assign a bin to COc1cc2cn3c4ccc(O)cc4[nH]c(=O)c3c2cc1OC
low

Assign a bin to O=C(/C=C/c1ccc(Br)cc1)c1ccccc1
high

Assign a bin to COc1ccc(C(=O)c2no[n+]([O-])c2C(=O)c2ccc(OC)cc2)cc1
low

Assign a bin to COc1ccc(C2C3(C#N)C(N)=NC(=C(C#N)C#N)C23C#N)cc1OC (stereo unspecified)
high

Assign a bin to Nc1nc2c(c3cnccc13)C(c1cccc(Cl)c1)Cc1cnccc1-2 (stereo unspecified)
intermediate

Assign a bin to Cc1nnc(-c2cc3c(ccc4ccccc43)oc2=O)c2cn(-c3ccc(Cl)cc3)nc12
high

Assign a bin to Cc1ncc(C(=O)Nc2ccc(CN3CCN(C)CC3)c(C(F)(F)F)c2)cc1C#Cc1c(N)ncc2ccccc12
low

Assign a bin to COc1ccc(-c2nc(SCC(C)C)nc(Nc3ccc(C(=O)O)cc3)c2C#N)cc1
high

Assign a bin to COc1ccc(NC(=O)/C=C(C)/C=C/C=C(C)/C=C/C2=C(C)CCCC2(C)C)cc1
intermediate

Assign a bin to Cc1ccc([C@@H]2C[C@H](O)Cc3ccccc3N2)s1
high

Assign a bin to c1ccc2[nH]c(-c3ccc(OCCCCCOc4ccc(-c5nc6ccccc6[nH]5)cc4)cc3)nc2c1
low

Assign a bin to COc1ccc(Cn2cc3c(c2)-c2oncc2CC3)cc1OC
intermediate

Assign a bin to COc1cc(-c2nn(-c3ccc(NC(=O)c4ccc(Cl)c(Cl)c4)cc3)cc2-c2ccncc2)ccc1Cl
intermediate

Assign a bin to CCOC(=O)c1c(C)oc2ncnc(Nc3ccc(NC(=O)Nc4cccc(Cl)c4)cc3)c12
intermediate

Assign a bin to CC(C)(C)C(=O)OCOP(=O)(OCOC(=O)C(C)(C)C)C1CC(O)N(O)C1=O (stereo unspecified)
low

Assign a bin to CCC(CCCN1C(=O)c2ccccc2C1=O)Nc1cc(OC)cc2c(C)ccnc12 (stereo unspecified)
high
